test system: HT-29; test: Cytotoxicity against human HT-29 cells assessed as growth inhibition measured by SRB assay; assay type: functional, cell-based
Would you mind telling me the reported IC50 of each entry?

# example entries with known answers
| COMPOUND | IC50 |
| --- | --- |
| COC(=O)CC/C(C)=C/Cc1c(OC)c(C)c2c(c1OCC#CCN1CCN(CCO)CC1)C(=O)OC2 | > 50 µM |
| COC(=O)CC/C(C)=C/Cc1c(OC)c(C)c2c(c1OCC#CCN1CCN(C(c3ccccc3)c3ccc(Cl)cc3)CC1)C(=O)OC2 (stereo unspecified) | > 50 µM |

Give IC50 for each listed item.
1. COC(=O)CC/C(C)=C/Cc1c(OC)c(C)c2c(c1OCC#CCN1CCN(Cc3ccc(Cl)cc3)CC1)C(=O)OC2
2. COC(=O)CC/C(C)=C/Cc1c(OC)c(C)c2c(c1OCC#CCN1CCN(C(=O)C3COc4ccccc4O3)CC1)C(=O)OC2 (stereo unspecified)

["> 50 µM", "> 50 µM"]
